Entry source: patent EP2402371A1

koff by entry:
- Target Or System: extracellular domain of human GPVI (human) (UniProt Q9HCN6)
- Measurement Description: SPR (Biacore 3000), human GPVI immobilised by amine coupling, Fab as analyte
// return numeric value only (unit: s⁻¹, not printed)

Query: Entry humanized anti-GPVI Fab VL3/VH2 (Fab, V domains shown) VH: QVQLQESGPGLVAPSQSLSITCTVSGFSLTGYGVNWVRQPPSRGLEWLGMIWGDGSTDYQSTLKSRLSISKDNSKSQVFLKMNSLTTDDTARYYCARDLPMDYWGQGTSVTVSS VL: DIQMTQSPSSLSASVGGRVTITCKASQDINKYIAWYQHKPGKGPSLLIHYTSTLQPGVPSRFSGSGSGRDYSFSISNLQPEDIATYYCLQYALLLTFGGGTKLEIKR has what koff?
Reply: 3e-05

Query: Entry humanized anti-GPVI Fab VL1/VH2 (Fab, V domains shown) VH: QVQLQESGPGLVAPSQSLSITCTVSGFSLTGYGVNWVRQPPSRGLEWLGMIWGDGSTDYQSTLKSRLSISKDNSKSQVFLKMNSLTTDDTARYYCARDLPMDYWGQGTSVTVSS VL: DIQMTQSPSSLSASVGGRVTITCKASQDINKYIAWYQHKPGKGPSLLIHYTSTLQPGVPSRFSGSGSGRDYSFSISNLQPEDIATYYCLQYANLLTFGGGTKLEIKR has what koff?
Reply: 3e-05

Query: Entry humanized anti-GPVI Fab VL2/VH2 (Fab, V domains shown) VH: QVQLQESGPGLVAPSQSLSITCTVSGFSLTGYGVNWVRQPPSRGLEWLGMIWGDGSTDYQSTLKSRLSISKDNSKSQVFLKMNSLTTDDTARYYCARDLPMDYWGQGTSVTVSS VL: DIQMTQSPSSLSASVGGRVTITCKASQDINKYIAWYQHKPGKGPSLLIHYTSTLQPGVPSRFSGSGSGRDYSFSISNLQPEDIATYYCLQYAHLLTFGGGTKLEIKR has what koff?
Reply: 3e-05

Query: Entry humanized anti-GPVI Fab VL3/VH4 (Fab, V domains shown) VH: QVQLQESGPGLVAPSQSLSITCTVSGFSLTYYGVNWVRQPPSRGLEWLGMIWGDGSTDYQSTLKSRLSISKDNSKSQVFLKMNSLTTDDTARYYCARDLPMDYWGQGTSVTVSS VL: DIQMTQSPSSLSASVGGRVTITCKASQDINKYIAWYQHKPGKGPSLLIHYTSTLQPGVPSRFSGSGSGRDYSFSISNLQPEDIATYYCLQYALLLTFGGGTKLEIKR has what koff?
Reply: 4e-05
